Attribute: % inhibition at 5 μM (or 10 μM if racemate) Skeletal
- System: isolated rabbit skeletal muscle myosin (skeletal)
- protocol: actomyosin steady state ATPase measurement, skeletal muscle myosin
- Type: biochemical
- cond: 5 μM (10 μM if racemate); ATPase activity
result-type: % inhibition at 5 μM (or 10 μM if racemate) Skeletal

# compound, endpoint-value
records = [
    ("O=C1c2sccc2N=C2N(c3ccccc3)CCC12O (centres unmarked)", "80%"),
    ("Cc1cc2c(s1)N=C1N(c3ccc(CO)cc3)CCC1(O)C2=O (centres unmarked)", "82%"),
    ("O=C1c2ccncc2N=C2N(c3ccc(OC(F)(F)F)cc3)CCC12O (centres unmarked)", "80%"),
    ("CN(C)c1ccc(N2CCC3(O)C(=O)c4ccncc4N=C23)cc1 (centres unmarked)", "47%"),
    ("O=C1c2cccnc2N=C2N(c3ccccc3)CCC12O (centres unmarked)", "37%"),
    ("Cc1cc2c(s1)N=C1N(c3ccccc3)CCC1(O)C2=O (centres unmarked)", "90%"),
    ("Cc1cc2c(s1)N=C1NCCC1(O)C2=O (centres unmarked)", "5%"),
    ("COc1ccc(N2CC[C@@]3(O)C(=O)c4ccsc4N=C23)cc1", "93%"),
    ("Nc1ccc(N2CC[C@@]3(O)C(=O)c4ccsc4N=C23)cc1", "44%"),
    ("O=C1c2ccsc2N=C2N(c3ccc(CO)cc3)CC[C@@]12O", "74%"),
    ("N#CCc1ccc(N2CC[C@@]3(O)C(=O)c4ccsc4N=C23)cc1", "80%"),
    ("Cc1ccc(N2CCC3(O)C(=O)c4ccncc4N=C23)cc1 (centres unmarked)", "74%"),
    ("Cc1ccc(N2CCC3(O)C(=O)c4cc(C)sc4N=C23)cc1 (centres unmarked)", "98%"),
    ("Cc1cc2c(s1)N=C1N(c3cccs3)CCC1(O)C2=O (centres unmarked)", "87%"),
    ("CC(=O)c1ccc(N2CCC3(O)C(=O)c4ccncc4N=C23)cc1 (centres unmarked)", "49%"),
    ("Cc1cc2c(s1)N=C1N(c3cccs3)CC[C@@]1(O)C2=O", "87%"),
    ("N#Cc1ccc(N2CC[C@@]3(O)C(=O)c4ccsc4N=C23)cc1", "89%"),
    ("O=C1c2ccsc2N=C2N(c3cccs3)CC[C@@]12O", "50%"),
    ("O=C1c2ccncc2N=C2NCCC12O (centres unmarked)", "6%"),
    ("Cc1cc2c(s1)N=C1N(c3ccc(OC(F)(F)F)cc3)CCC1(O)C2=O (centres unmarked)", "95%"),
]

* * *

- tested-target: recombinant Dictyostelium miozin (Dictyostelium) (Dictyostelium discoideum, UniProt P08799)
- Sequence (P08799 whole entry): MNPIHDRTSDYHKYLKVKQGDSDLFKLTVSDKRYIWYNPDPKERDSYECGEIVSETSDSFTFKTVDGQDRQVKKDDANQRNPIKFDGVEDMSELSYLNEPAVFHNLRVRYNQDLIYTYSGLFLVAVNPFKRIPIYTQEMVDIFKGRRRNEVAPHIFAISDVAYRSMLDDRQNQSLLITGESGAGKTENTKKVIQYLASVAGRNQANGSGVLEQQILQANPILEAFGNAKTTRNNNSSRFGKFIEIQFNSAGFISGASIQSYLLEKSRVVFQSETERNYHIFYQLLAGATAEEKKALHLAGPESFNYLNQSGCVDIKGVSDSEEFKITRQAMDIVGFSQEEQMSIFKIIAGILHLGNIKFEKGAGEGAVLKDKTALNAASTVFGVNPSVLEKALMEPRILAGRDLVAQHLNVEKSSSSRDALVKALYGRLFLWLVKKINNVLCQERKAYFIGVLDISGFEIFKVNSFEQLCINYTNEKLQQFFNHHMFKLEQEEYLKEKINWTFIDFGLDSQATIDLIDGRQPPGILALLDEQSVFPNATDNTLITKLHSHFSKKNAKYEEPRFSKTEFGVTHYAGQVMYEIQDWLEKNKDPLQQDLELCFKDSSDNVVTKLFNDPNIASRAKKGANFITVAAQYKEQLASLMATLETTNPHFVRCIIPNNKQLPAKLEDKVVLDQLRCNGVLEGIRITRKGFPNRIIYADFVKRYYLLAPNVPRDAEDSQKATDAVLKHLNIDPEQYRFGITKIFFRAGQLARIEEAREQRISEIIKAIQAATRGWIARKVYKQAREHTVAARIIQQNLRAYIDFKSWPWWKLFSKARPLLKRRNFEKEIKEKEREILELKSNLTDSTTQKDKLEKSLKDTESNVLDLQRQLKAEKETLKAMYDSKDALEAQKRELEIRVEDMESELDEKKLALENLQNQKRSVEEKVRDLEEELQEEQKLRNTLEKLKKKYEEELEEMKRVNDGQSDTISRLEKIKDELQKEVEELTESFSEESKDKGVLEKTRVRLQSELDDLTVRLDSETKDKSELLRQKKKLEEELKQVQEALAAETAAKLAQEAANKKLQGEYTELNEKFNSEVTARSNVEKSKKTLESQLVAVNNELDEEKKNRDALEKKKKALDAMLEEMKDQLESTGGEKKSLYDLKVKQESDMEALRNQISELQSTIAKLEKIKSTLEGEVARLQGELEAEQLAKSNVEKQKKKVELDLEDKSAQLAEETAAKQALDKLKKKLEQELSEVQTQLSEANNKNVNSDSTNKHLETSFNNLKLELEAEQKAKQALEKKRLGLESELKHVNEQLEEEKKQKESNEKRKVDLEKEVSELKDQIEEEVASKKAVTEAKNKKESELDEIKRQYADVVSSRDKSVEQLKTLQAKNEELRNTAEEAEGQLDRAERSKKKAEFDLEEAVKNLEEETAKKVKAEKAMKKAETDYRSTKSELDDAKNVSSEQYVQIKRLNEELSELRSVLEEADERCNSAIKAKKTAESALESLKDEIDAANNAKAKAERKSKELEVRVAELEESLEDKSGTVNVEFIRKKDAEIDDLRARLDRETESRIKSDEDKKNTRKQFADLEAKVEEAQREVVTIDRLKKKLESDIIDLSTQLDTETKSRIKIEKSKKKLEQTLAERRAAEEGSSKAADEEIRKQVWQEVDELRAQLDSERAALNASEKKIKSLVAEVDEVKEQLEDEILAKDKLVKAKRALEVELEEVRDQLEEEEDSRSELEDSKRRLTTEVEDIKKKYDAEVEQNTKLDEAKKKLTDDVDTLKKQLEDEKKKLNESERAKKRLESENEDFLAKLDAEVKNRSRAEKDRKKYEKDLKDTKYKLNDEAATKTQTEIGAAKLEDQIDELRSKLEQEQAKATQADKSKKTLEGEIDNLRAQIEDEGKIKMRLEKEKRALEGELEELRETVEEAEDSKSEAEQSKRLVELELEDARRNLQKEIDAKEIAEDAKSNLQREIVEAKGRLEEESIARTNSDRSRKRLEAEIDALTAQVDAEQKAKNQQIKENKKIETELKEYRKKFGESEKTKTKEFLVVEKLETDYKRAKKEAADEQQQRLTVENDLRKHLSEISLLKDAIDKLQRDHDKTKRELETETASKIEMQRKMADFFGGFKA
- protocol: actomyosin steady state ATPase measurement, Dictyostelium myosin
- Format: biochemical
- cond: read-out: % inhibition at 5 μM (or 10 μM if racemate) Dicty
- Excerpt: […]; (ii) the concentration required for semi-maximal inhibition.
result-type: inhibition at 5 µM (%)

# molecule, endpoint-value
rows = [
    ("Cc1cc2c(s1)N=C1N(c3ccc(OC(F)(F)F)cc3)CCC1(O)C2=O (centres unmarked)", 21),
    ("Cc1ccc(N2CCC3(O)C(=O)c4ccncc4N=C23)cc1 (centres unmarked)", 4),
    ("CC(=O)c1ccc(N2CCC3(O)C(=O)c4ccncc4N=C23)cc1 (centres unmarked)", 24),
    ("O=C1c2ccncc2N=C2N(c3ccccc3)CCC12O (centres unmarked)", 7),
    ("Cc1cc2c(s1)N=C1N(c3ccc(C#N)cc3)CCC1(O)C2=O (centres unmarked)", 64),
    ("Cc1cc2c(s1)N=C1N(c3ccc(CC#N)cc3)CCC1(O)C2=O (centres unmarked)", 43),
    ("O=C1c2ccsc2N=C2N(c3ccc(N4CCOCC4)cc3)CCC12O (centres unmarked)", 5),
    ("COc1ccc(N2CC[C@@]3(O)C(=O)c4ccsc4N=C23)cn1", 6),
    ("O=C1c2ccncc2N=C2N(c3ccc(N4CCOCC4)cc3)CCC12O (centres unmarked)", 0),
    ("Cc1cc2c(s1)N=C1N(c3ccc(N)cc3)CCC1(O)C2=O (centres unmarked)", 27),
    ("COc1ccc(N2CCC3(O)C(=O)c4cc(C)sc4N=C23)cc1 (centres unmarked)", 49),
    ("Cc1cc2c(s1)N=C1N(c3ccccc3)CCC1(O)C2=O (centres unmarked)", 51),
    ("COc1ccc(N2CC[C@@]3(O)C(=O)c4ccsc4N=C23)cc1", 33),
    ("O=C1c2ccncc2N=C2NCCC12O (centres unmarked)", 4),
    ("CC(=O)c1ccc(N2CC[C@@]3(O)C(=O)c4ccsc4N=C23)cc1", 8),
    ("Cc1ccc(N2CC[C@@]3(O)C(=O)c4ccsc4N=C23)cc1", 21),
    ("O=C1c2ccsc2N=C2NCC[C@@]12O", 0),
    ("Cc1cc2c(s1)N=C1NCCC1(O)C2=O (centres unmarked)", 4),
    ("O=C1c2ccsc2N=C2N(c3ccccc3)CCC12O (centres unmarked)", 22),
    ("Cc1cc2c(s1)N=C1N(c3ccc(N4CCOCC4)cc3)CCC1(O)C2=O (centres unmarked)", 0),
    ("CN(C)c1ccc(N2CC[C@@]3(O)C(=O)c4ccsc4N=C23)cc1", 15),
    ("CN(C)c1ccc(N2CCC3(O)C(=O)c4ccncc4N=C23)cc1 (centres unmarked)", 1),
    ("Cc1ccc(N2CCC3(O)C(=O)c4cc(C)sc4N=C23)cc1 (centres unmarked)", 44),
    ("Cc1cc2c(s1)N=C1N(c3ccc(N(C)C)cc3)CCC1(O)C2=O (centres unmarked)", 15),
    ("O=C1c2sccc2N=C2N(c3ccccc3)CCC12O (centres unmarked)", 26),
    ("O=C1c2ccncc2N=C2N(c3ccc(OC(F)(F)F)cc3)CCC12O (centres unmarked)", 24),
    ("O=C1c2ccsc2N=C2N(c3ccc(CO)cc3)CC[C@@]12O", 20),
    ("Cc1cc2c(s1)N=C1N(c3ccc(CO)cc3)CCC1(O)C2=O (centres unmarked)", 47),
    ("COc1ccc(N2CCC3(O)C(=O)c4cc(C)sc4N=C23)cn1 (centres unmarked)", 36),
    ("N#Cc1ccc(N2CC[C@@]3(O)C(=O)c4ccsc4N=C23)cc1", 50),
    ("O=C1c2ccsc2N=C2N(c3ccc(OC(F)(F)F)cc3)CC[C@@]12O", 26),
    ("Nc1ccc(N2CC[C@@]3(O)C(=O)c4ccsc4N=C23)cc1", 3),
    ("N#CCc1ccc(N2CC[C@@]3(O)C(=O)c4ccsc4N=C23)cc1", 23),
    ("Cc1cc2c(s1)N=C1N(c3cccs3)CCC1(O)C2=O (centres unmarked)", 74),
    ("Cc1cc2c(s1)N=C1N(c3cccs3)CC[C@@]1(O)C2=O", 55),
    ("O=C1c2cccnc2N=C2N(c3ccccc3)CCC12O (centres unmarked)", 0),
    ("O=C1c2ccsc2N=C2N(c3cccs3)CC[C@@]12O", 4),
    ("CC(=O)c1ccc(N2CCC3(O)C(=O)c4cc(C)sc4N=C23)cc1 (centres unmarked)", 64),
]

* * *

- tested-target: recombinant human non-muscle myosin 2 NM2A (Homo sapiens)
- Sequence (P35579 whole entry): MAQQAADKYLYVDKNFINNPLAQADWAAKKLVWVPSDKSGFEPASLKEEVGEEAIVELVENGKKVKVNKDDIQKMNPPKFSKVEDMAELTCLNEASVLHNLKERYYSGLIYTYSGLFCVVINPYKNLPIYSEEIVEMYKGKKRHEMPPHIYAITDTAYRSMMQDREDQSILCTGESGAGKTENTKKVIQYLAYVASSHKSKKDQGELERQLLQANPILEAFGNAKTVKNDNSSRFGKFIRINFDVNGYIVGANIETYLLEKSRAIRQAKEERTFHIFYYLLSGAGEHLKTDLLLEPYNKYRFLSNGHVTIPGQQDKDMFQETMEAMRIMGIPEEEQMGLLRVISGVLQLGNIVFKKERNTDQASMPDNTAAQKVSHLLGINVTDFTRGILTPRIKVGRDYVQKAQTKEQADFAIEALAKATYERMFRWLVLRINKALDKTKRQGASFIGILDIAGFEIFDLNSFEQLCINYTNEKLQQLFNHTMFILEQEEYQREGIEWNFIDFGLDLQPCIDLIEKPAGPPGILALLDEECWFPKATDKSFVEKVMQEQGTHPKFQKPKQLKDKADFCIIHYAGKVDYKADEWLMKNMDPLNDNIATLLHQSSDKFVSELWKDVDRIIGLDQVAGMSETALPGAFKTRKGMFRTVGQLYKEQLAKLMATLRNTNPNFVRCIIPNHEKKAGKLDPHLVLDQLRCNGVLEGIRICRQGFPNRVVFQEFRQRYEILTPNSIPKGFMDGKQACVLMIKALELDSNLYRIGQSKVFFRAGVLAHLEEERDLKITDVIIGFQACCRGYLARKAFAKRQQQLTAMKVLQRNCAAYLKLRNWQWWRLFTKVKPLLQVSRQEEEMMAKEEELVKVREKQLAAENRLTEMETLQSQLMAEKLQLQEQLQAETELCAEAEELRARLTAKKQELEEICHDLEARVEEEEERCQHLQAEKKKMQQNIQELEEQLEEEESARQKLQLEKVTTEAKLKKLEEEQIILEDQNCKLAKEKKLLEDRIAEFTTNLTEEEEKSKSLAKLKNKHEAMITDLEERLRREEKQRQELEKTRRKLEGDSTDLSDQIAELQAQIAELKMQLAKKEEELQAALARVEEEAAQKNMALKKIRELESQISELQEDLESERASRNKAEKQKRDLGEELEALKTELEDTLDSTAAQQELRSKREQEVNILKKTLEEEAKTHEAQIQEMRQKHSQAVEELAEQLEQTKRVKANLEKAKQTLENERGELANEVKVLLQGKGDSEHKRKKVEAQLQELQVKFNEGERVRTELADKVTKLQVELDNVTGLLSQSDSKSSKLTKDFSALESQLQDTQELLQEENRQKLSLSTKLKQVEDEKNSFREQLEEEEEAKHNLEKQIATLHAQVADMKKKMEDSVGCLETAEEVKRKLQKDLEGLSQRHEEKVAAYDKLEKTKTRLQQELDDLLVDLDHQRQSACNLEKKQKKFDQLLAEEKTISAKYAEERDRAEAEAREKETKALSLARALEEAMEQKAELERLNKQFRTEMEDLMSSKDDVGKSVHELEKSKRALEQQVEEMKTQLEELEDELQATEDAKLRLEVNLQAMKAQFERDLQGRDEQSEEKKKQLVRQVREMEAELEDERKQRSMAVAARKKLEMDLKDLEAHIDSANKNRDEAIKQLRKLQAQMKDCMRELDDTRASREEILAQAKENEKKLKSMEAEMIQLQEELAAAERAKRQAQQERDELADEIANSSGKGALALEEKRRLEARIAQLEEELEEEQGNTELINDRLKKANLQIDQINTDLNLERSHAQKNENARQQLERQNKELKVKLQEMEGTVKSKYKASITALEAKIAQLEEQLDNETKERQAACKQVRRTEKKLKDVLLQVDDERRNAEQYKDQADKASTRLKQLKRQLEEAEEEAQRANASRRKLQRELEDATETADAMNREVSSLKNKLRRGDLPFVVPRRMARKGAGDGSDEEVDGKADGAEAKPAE
- protocol: actomyosin steady state ATPase measurement, NM2A
- Assay type: biochemical
- cond: maximum value of inhibition of ATPase activity

# molecule, % inhibition. complete NM2A (%)
records = [
    ("O=C1c2sccc2N=C2N(c3ccccc3)CCC12O (centres unmarked) [Compound 183]", 100),
    ("CC(=O)c1ccc(N2CC[C@@]3(O)C(=O)c4ccsc4N=C23)cc1 [Compound 214]", 32),
    ("Cc1cc2c(s1)N=C1N(c3ccc(N4CCOCC4)cc3)CCC1(O)C2=O (centres unmarked) [Compound 220]", 20),
    ("Cc1cc2c(s1)N=C1N(c3ccccc3)CCC1(O)C2=O (centres unmarked) [Compound 198]", 100),
    ("O=C1c2ccsc2N=C2N(c3ccccc3)CCC12O (centres unmarked) [Compound 180]", 48),
    ("O=C1c2ccsc2N=C2N(c3ccc(N4CCOCC4)cc3)CCC12O (centres unmarked) [Compound 188]", 31),
    ("Nc1ccc(N2CC[C@@]3(O)C(=O)c4ccsc4N=C23)cc1 [Compound 210]", 100),
    ("O=C1c2cccnc2N=C2N(c3ccccc3)CCC12O (centres unmarked) [Compound 189]", 8),
    ("COc1ccc(N2CC[C@@]3(O)C(=O)c4ccsc4N=C23)cc1 [Compound 211]", 99),
    ("Cc1cc2c(s1)N=C1N(c3cccs3)CC[C@@]1(O)C2=O [Compound 208]", 89),
    ("N#Cc1ccc(N2CC[C@@]3(O)C(=O)c4ccsc4N=C23)cc1 [Compound 213]", 74),
]

Values from patent US12421243B2
